molecular target: FAD-linked sulfhydryl oxidase ALR (Homo sapiens, UniProt P55789); test: inhibitors of human ALR sulfhydryl oxidase, dose response, biochemical, H2O2 detection, luminescence, cherry-pick (AID 493248)
Sequence (P55789 whole entry): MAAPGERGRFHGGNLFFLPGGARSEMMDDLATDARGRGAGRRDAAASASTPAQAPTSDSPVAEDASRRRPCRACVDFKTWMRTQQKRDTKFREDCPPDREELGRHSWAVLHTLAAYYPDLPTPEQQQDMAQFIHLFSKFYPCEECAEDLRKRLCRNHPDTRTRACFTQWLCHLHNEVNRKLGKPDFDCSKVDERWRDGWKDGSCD
Active and inactive are the calls of the source. Rule as the data show it: actives have a measured AC50 and inactives only a lower limit.

[
  {
    "compound": "COc1ccc(C2NC(=O)C(C#N)=C(S)N2c2ccccc2)cc1OC (stereo not drawn)",
    "AC50": "< 14 nM (active)"
  },
  {
    "compound": "O=C1Nc2ccccc2N(O)N1c1cc(-c2cccc(Cl)c2)no1",
    "AC50": "1920 nM (active)"
  },
  {
    "compound": "Cc1ccsc1C(=O)NNC(=O)CCN1CCN(c2ccccc2)CC1",
    "AC50": "4880 nM (active)"
  },
  {
    "compound": "Cc1ccc(NC2CCCN(C(=O)c3cc4ncccn4n3)C2)cc1C (stereo not drawn)",
    "AC50": "4140 nM (active)"
  },
  {
    "compound": "CSCc1ccc(C(=O)NC(C)c2cnn(-c3ccccn3)c2C)o1 (stereo not drawn)",
    "AC50": "9510 nM (active)"
  },
  {
    "compound": "CCn1c(-c2ccc(Cl)cc2)n[nH]c1=S",
    "AC50": "6500 nM (active)"
  },
  {
    "compound": "CC1CCC(NC(=O)Nc2cccs2)CC1 (stereo not drawn)",
    "AC50": "1180 nM (active)"
  },
  {
    "compound": "Fc1ccc(N2CCN(Cc3ccccn3)CC2)cc1",
    "AC50": "8770 nM (active)"
  },
  {
    "compound": "COc1ccc(NC2CCCN(C(=O)CCc3ccccc3F)C2)cc1 (stereo not drawn)",
    "AC50": "13400 nM (active)"
  },
  {
    "compound": "COC(=O)Nc1ccc(S(=O)(=O)N2CCC(C(=O)N(C)C3CCCCC3)CC2)cc1",
    "AC50": "1920 nM (active)"
  },
  {
    "compound": "COc1cc(/C=N/NC(=O)c2ccc(O)nn2)ccc1O",
    "AC50": "1220 nM (active)"
  },
  {
    "compound": "O=C(O)c1cccc(COc2ccc3c(c2)CCC3)c1",
    "AC50": "1370 nM (active)"
  },
  {
    "compound": "Cc1ccc(C(=O)Nc2ccccc2C(=O)O)cc1S(=O)(=O)Nc1ccc(Br)cc1",
    "AC50": "628 nM (active)"
  }
]
